molecular target: JAK3 (Homo sapiens)
Sequence (P52333 811-1124 limits assumed): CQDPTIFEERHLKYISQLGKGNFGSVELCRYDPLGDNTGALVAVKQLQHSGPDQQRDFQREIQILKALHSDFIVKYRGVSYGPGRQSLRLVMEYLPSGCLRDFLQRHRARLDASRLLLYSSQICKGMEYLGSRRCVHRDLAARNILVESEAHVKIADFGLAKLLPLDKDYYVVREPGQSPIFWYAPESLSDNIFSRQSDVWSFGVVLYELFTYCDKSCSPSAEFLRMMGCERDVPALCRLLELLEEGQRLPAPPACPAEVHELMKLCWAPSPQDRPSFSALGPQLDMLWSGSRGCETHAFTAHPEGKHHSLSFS
quantity: Kd

Check out these entries, answers already filled in.
N#CCc1ccc(Nc2n[nH]c(NCc3ccc(O)cc3)c2C(N)=O)cc1 [reference compound]; < 50 nM
Cc1cc(Nc2n[nH]c(NCc3ccc(O)cc3)c2C(N)=O)ccc1N1CCN(C)CC1 [reference compound]; < 50 nM
COc1ccc(C(=O)Nc2ccc(Nc3n[nH]c(NCc4ccc(O)cc4)c3C(N)=O)cc2)cc1 [reference compound]; < 50 nM

Here is another compound to look at.
// query Kd value for entry C[C@@H]1CC(c2ccc(Nc3n[nH]c(NCc4ccc(O)cc4)c3C(N)=O)cn2)C[C@H](C)O1 (stereo partly drawn) [reference compound]
< 50 nM
